Listed compounds paired with reported HEK293T_AUC
tested on: HEK293T cells; test: qHTS cell viability (CellTiter-Glo, 72 h; primary screen), control cell line; format: cell-based, human; settings: NPC library; qHTS dose-response AUC, HEK293T control
Structures can show the parent of a compound that is named as a salt.
Response field accepts a number only; no unit should be typed.

[
  {
    "compound": "CCCCCCCCOc1ccccc1C(=O)Nc1ccc(C(=O)OCC[N+](C)(CC)CC)cc1 [Octylonium bromide]",
    "test-result": 439.213
  },
  {
    "compound": "O=C(CCCN1CCC(O)(c2ccc(Br)cc2)CC1)c1ccc(F)cc1",
    "test-result": 458.67
  },
  {
    "compound": "CCOc1ccc2nc(S(N)(=O)=O)sc2c1 [Ethoxzolamide]",
    "test-result": 465.047
  },
  {
    "compound": "CC[N+]1(CC)CCC(=C(c2ccccc2)c2ccccc2)C1C (centres unmarked) [Prifinium bromide]",
    "test-result": 463.923
  },
  {
    "compound": "CCCCCCC[N+](CC)(CC)CCCCc1ccc(Cl)cc1.Cc1ccc(S(=O)(=O)[O-])cc1 [Clofilium tosylate]",
    "test-result": 375.013
  },
  {
    "compound": "CNCc1ccccc1.Cl [N-Methylbenzylamine hydrochloride]",
    "test-result": 408.972
  }
]

Ask | Recorded HEK293T_AUC for `[H]/N=C(/NCCCCC)N/N=C/c1c[nH]c2ccc(OC)cc12` , please?
Reply | 405.853

Ask | Recorded HEK293T_AUC for N=C(N)NC(=O)c1nc(Cl)c(N)nc1N [Amiloride] , please?
Reply | 497.776

Ask | Recorded HEK293T_AUC for CCCCC1C(=O)N(c2ccccc2)N(c2ccc(O)cc2)C1=O (centres unmarked) , please?
Reply | 361.816

Ask | Recorded HEK293T_AUC for `Cc1nc2ccccn2c(=O)c1CCN1CCC(C(=O)c2ccc(F)cc2)CC1` , please?
Reply | 450.239

Ask | Recorded HEK293T_AUC for `CCOC(=O)[C@H](CCc1ccccc1)N[C@@H](C)C(=O)N1CCC[C@H]1C(=O)O` , please?
Reply | 487.46

Ask | Recorded HEK293T_AUC for O=C1OC(CCN2CCCCC2)OC1(c1ccccc1)c1ccccc1 (centres unmarked) [Pipoxolan hydrochloride] , please?
Reply | 445.369

Ask | Recorded HEK293T_AUC for CCCC(=O)OC[C@@H](OC(=O)CCC)[C@@H](OC(=O)CCC)[C@H](Cn1c2nc(=O)[nH]c(=O)c-2nc2cc(C)c(C)cc21)OC(=O)CCC [Riboflavin tetrabutyrate] , please?
Reply | 450.178

Ask | Recorded HEK293T_AUC for Cc1cc(OCCOCC[N+](C)(C)Cc2ccccc2)ccc1C(C)(C)CC(C)(C)C.[Cl-] [Methylbenzethonium chloride] , please?
Reply | 317.092

Ask | Recorded HEK293T_AUC for CCOC(=O)[C@@](C)(N)Cc1ccc(O)c(O)c1 [Methyldopate hydrochloride] , please?
Reply | 443.954

Ask | Recorded HEK293T_AUC for c1ccc(CC2=NCCN2)cc1 [Tolazoline hydrochloride] , please?
Reply | 454.352

Ask | Recorded HEK293T_AUC for `N=C(N)NN=C(/C=C/c1ccc([N+](=O)[O-])o1)/C=C/c1ccc([N+](=O)[O-])o1` , please?
Reply | 356.338

====

test system: NIH-3T3 cells; assay: qHTS cell viability (CellTiter-Glo, 72 h; primary screen), control cell line; type: cell-based, mouse; conditions: NPC library; qHTS dose-response AUC, NIH3T3 control
Where a name gives a salt, the structure may show the parent alone.
property-name: NIH3T3_AUC
Response field accepts a number only; no unit should be typed.

[
  {
    "compound": "COc1cc(/C=C2\\CCC/C(=C\\c3ccc(O)c(OC)c3)C2=O)ccc1O",
    "NIH3T3_AUC": 447.034
  },
  {
    "compound": "[H]/N=C(\\N/C(=N/[H])NCCCCCCNC(=N)NC(=N)Nc1ccc(Cl)cc1)Nc1ccc(Cl)cc1",
    "NIH3T3_AUC": 459.651
  },
  {
    "compound": "CC1=C(C)C(=O)C(CCCCC#CCCCC#CCO)=C(C)C1=O",
    "NIH3T3_AUC": 455.144
  },
  {
    "compound": "CCCCC1C(=O)N(c2ccccc2)N(c2ccc(O)cc2)C1=O (stereo not drawn)",
    "NIH3T3_AUC": 433.353
  },
  {
    "compound": "N=C(N)NC(=O)c1nc(Cl)c(N)nc1N [Amiloride]",
    "NIH3T3_AUC": 492.231
  }
]

Then there is this compound:
Ask | Look up NIH3T3_AUC with NIH-3T3 cells for this compound: CCCCOc1ccc(C(=O)CCN2CCCCC2)cc1 [Dyclonine hydrochloride]
Reply | 489.536

====

tested on: NIH-3T3 cells; assay: qHTS cell viability (CellTiter-Glo, 72 h; primary screen), control cell line; type: cell-based, mouse; conditions: NPC library; qHTS dose-response AUC, NIH3T3 control
Counter-ions that a name gives are not always drawn.
property-name: NIH3T3_AUC
Response field accepts a number only; no unit should be typed.

Example cases with answers are listed next.
[
  {
    "compound": "CCCCC(CC)CNC(=N)NC(=N)NCCCCCCNC(=N)NC(=N)NCC(CC)CCCC (stereo not drawn) [Alexidine dihydrochloride]",
    "NIH3T3_AUC": 453.563
  },
  {
    "compound": "CSc1ccc2c(c1)N(CCC1CCCCN1C)c1ccccc1S2 (stereo not drawn)",
    "NIH3T3_AUC": 457.938
  },
  {
    "compound": "O=C(CCN1CCC(c2ccccc2)C1)c1ccc2c(c1)OCCO2 (stereo not drawn)",
    "NIH3T3_AUC": 459.69
  }
]

Ask | Look up NIH3T3_AUC with NIH-3T3 cells for this compound: CCCCCCC[N+](CC)(CC)CCCCc1ccc(Cl)cc1.Cc1ccc(S(=O)(=O)[O-])cc1 [Clofilium tosylate]
Reply | 452.7

Ask | Look up NIH3T3_AUC with NIH-3T3 cells for this compound: Cc1cc(OCCOCC[N+](C)(C)Cc2ccccc2)ccc1C(C)(C)CC(C)(C)C.[Cl-] [Methylbenzethonium chloride]
Reply | 469.697

Ask | Look up NIH3T3_AUC with NIH-3T3 cells for this compound: Oc1ccc(O)cc1 [Hydroquinone]
Reply | 488.45

====

system: MCC13 cells (VN-MCC); assay: qHTS cell viability (CellTiter-Glo, 72 h; primary and follow-up small molecule screen); format: cell-based, human; details: MCC13, 72h, Log (M) -9.63055
Listed compounds paired with reported Percent viability
// units = %; emit number, no label

Example cases with answers are listed next.
[
  {
    "compound": "Cc1cc(Nc2cc(N3CCN(C)CC3)nc(Sc3ccc(NC(=O)C4CC4)cc3)n2)[nH]n1 [Tozasertib, reference compound]",
    "unit-abbreviation": "%",
    "Percent viability": 100.0
  },
  {
    "compound": "CCS(=O)(=O)c1cccc(-c2cc(C(=O)NC3CCN(C)CC3)c(C)c3[nH]c4ncc(C)cc4c23)c1 [TAK-901, reference compound]",
    "unit-abbreviation": "%",
    "Percent viability": 119.9
  },
  {
    "compound": "CCn1cc(-c2ccnc3[nH]c(-c4cccc(CN(C)C)c4)cc23)c(-c2ccc(NC(=O)N(C)C)cc2)n1 [GSK-1070916A, reference compound]",
    "unit-abbreviation": "%",
    "Percent viability": 98.4
  }
]

Then there is this compound:
Ask | Recorded Percent viability for O=C(Nc1cccc(Cl)c1)Nc1ncc(CCNc2ncnc3ccsc23)s1 [SNS-314, reference compound] , please?
Reply | 116.5

====

system: UISO cells (VN-MCC); assay: qHTS cell viability (CellTiter-Glo, 72 h; primary and follow-up small molecule screen); format: cell-based, human; details: follow-up screen; UISO; replicate 1
Where a name gives a salt, the structure may show the parent alone.
Listed compounds paired with reported Area under the dose-response curve (AUC) UISO Replicate 1
Response field accepts a number only; no unit should be typed.

[
  {
    "compound": "O=C(CCCN1CCC(O)(c2ccc(Br)cc2)CC1)c1ccc(F)cc1 [Bromperidol]",
    "test-result": 462.9
  },
  {
    "compound": "Cc1cc(Nc2ncc3c(n2)N(C)C(=O)N(c2cc(NC(=O)c4cccc(C(F)(F)F)c4)ccc2C)C3)n(C)n1 [Pluripotin]",
    "test-result": 341.8
  },
  {
    "compound": "CCN(CC)C(=S)SSC(=S)N(CC)CC [Disulfiram]",
    "test-result": 247.9
  },
  {
    "compound": "CC(C)=CCC[C@]1(C)C=Cc2c(O)c3c(c(CC=C(C)C)c2O1)O[C@]12C(=C[C@@H]4C[C@H]1C(C)(C)O[C@@]2(C/C=C(/C)C(=O)O)C4=O)C3=O [GAMBOGIC ACID]",
    "test-result": 286.6
  },
  {
    "compound": "Nc1ncnc2c1ncn2[C@@H]1O[C@H](CO)[C@@H](O)[C@H]1O [Adenosine]",
    "test-result": 514.9
  },
  {
    "compound": "CC[C@@]1(O)C(=O)OCc2c1cc1n(c2=O)Cc2cc3c(CN(C)C)c(O)ccc3nc2-1 [Topotecan HCl]",
    "test-result": 203.8
  }
]

Ask | Recorded Area under the dose-response curve (AUC) UISO Replicate 1 for C/C=C(/C)C(=O)O[C@H]1C(C)=C2[C@H]([C@@H]1OC(=O)CCCCCCC)[C@@](C)(OC(C)=O)C[C@H](OC(=O)CCC)[C@@]1(O)[C@H]2OC(=O)[C@@]1(C)O [Thapsigargin] , please?
Reply | 207.4

Ask | Recorded Area under the dose-response curve (AUC) UISO Replicate 1 for O=c1cc(-c2ccc(O)c(O)c2)oc2cc(O)cc(O)c12 [Luteolin] , please?
Reply | 505.5
